assayedTarget: G-actin (UniProt P68135 1-377)
testName: FP; LatB-actin; phospho-S98
Square brackets hold non-standard residues; d marks the D form. Ends that are not written are not given here. pS = N[C@@H](COP(=O)(O)O)C(=O)O
resultType: Kd (nM)

{"binder": "{FAM}-PNLPPLSERKNVLQLKLQQRRTREELVSQGIMPPLK[pS]PAAFHE [FAM-MRTF-A(62–104) phosphorylated at S98]", "experimentalValue": 850}
{"binder": "{FAM}-LSERKNVLQLKLQQRRTREELVSQGIMPPLK[pS] [FAM-MRTF-A(67–98) phosphorylated at S98]", "experimentalValue": 630}
